- MEASURED ON: T1, HCV Core1-169 (hepatitis C virus (HCV-1), UniProt P26664 1-169)
- T1 sequence: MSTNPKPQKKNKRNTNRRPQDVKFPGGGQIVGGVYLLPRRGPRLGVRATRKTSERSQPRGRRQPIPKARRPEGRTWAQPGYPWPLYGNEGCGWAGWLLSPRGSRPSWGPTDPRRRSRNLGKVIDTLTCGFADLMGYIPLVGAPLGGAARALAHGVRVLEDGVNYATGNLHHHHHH
- TEST NAME: SPR sandwich, capture mAb C11-14
MEASUREMENT TYPE: expected percent binding (%)
Numbers only, in %.

BINDER | MEASUREMENT TYPE | OBS VALUE
HCV 208A-741 (antibody, V domains shown) VH: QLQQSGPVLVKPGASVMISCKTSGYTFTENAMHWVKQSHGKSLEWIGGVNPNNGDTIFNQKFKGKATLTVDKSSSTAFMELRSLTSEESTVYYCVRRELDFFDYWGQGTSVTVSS VL: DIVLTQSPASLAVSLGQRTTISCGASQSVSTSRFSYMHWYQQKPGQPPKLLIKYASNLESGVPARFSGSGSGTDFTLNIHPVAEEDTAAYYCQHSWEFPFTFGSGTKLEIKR | expected percent binding | 21.2

Short answer for HCV 208B-560 (antibody, V domains shown) VH: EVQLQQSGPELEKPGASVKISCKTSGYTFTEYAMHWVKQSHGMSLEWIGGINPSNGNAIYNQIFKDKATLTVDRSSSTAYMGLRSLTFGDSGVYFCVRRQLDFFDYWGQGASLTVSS VL: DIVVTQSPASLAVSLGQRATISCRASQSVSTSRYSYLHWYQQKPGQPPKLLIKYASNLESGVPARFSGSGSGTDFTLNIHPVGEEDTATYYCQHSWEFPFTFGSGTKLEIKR : expected percent binding was 12

Source of measurements: patent US20170052184A1
